Assignment: determine reported pEC50 for the given compounds.
# System: HBV rcDNA
# Measurement description: HepDE19 assay with bDNA quantitation of HBV rcDNA
# Type: cell-based, hepatitis B virus
# Applied conditions: HepDE19 cells, Tet-free medium, 7 day-incubation, rcDNA measured by Quantigene 2.0 bDNA assay, top concentration 25 μM; read-out: DE-19 bDNA EC50
One number for each entry, as −log10 of the molar value.

Give measured pEC50 for every item shown.
1. Cn1cc2c(c1C(=O)Nc1ccc(F)c(Cl)c1)CCC2NC(=O)OC[C@@H]1CCC(=O)N1 (single isomer, unassigned) [Compound 118]
2. Cn1cc2c(c1C(=O)Nc1ccc(F)c(Cl)c1)CCC2NS(=O)(=O)C1CC1 (single isomer, unassigned) [Compound 13]
3. Cn1c(Cl)c2c(c1C(=O)Nc1ccc(F)c(Cl)c1)CCC2NC(=O)OCc1nc[nH]n1 (single isomer, unassigned) [Compound 105]

Result:
6.80
5.17
8.00

---

# Test system: HBV rcDNA
# Measurement description: HepDE19 assay with bDNA quantitation of HBV rcDNA
# Type: cell-based, hepatitis B virus
# Applied conditions: HepDE19 cells, Tet-free medium, 7 day-incubation, rcDNA measured by Quantigene 2.0 bDNA assay, top concentration 25 μM; read-out: DE-19 bDNA EC50
# From the text: HepDE19 Assay with bDNA Quantitation of HBV rcDNA: HepDE19 cell culture system is a HepG2 (human hepatocarcinoma) derived cell line that supports HBV DNA replication and cccDNA formation in a tetracycline (Tet)-regulated manner and produces HBV rcDNA and a detectable reporter molecule dependent on the production and maintenance of cccDNA (Guo, et al., 2007, J. Virol. 81:12472-12484). […]
Assay metric: pEC50
Answers are plain numbers, as −log10 of the molar value.

Illustrative cases are given below, each with its answer.
Cn1cc2c(c1C(=O)Nc1ccc(F)c(Cl)c1)CCC2NC(=O)C1CC1 (single isomer, unassigned) [Compound 24] = 5.80
Cn1cc2c(c1C(=O)Nc1ccc(F)c(Cl)c1)CCC2NC(=O)OCc1nc[nH]n1 (single isomer, unassigned) [Compound 57] = 7.30
Cn1c(C(=O)Nc2ccc(F)c(Cl)c2)c2c(c1C(F)(F)F)C(NC(=O)OCc1cn[nH]n1)CC2 (single isomer, unassigned) [Compound 132] = 4.89

Give measured pEC50 for every item shown.
1. Cn1nnc(COC(=O)NC2CCc3c2cn(C)c3C(=O)Nc2ccc(F)c(Cl)c2)n1 (stereo not shown) [Compound 142]
2. CNC(=O)NC1CCc2c1c[nH]c2C(=O)Nc1ccc(F)c(Cl)c1 (single isomer, unassigned) [Compound 10]
3. Cn1cc2c(c1C(=O)Nc1ccc(F)c(Cl)c1)CCC2NC(=O)OCc1n[nH]nc1C1CC1 (single isomer, unassigned) [Compound 146]

Result:
5.49
4.80
5.03

---

# Test system: HBV rcDNA
# Measurement description: HepDE19 assay with bDNA quantitation of HBV rcDNA
# Type: cell-based, hepatitis B virus
# Applied conditions: Hepatitis B virus, HepDE19, 168 h, HepDE19 cells, Tet-free medium, 7 day-incubation, rcDNA measured by Quantigene 2.0 bDNA assay, top concentration 25 μM; read-out: DE-19 bDNA EC50
pEC50: −log10 of the molar value.
just bin them by pEC50: low interval: < 6; middle interval: ≥ 6 and < 7; high interval: ≥ 7

Examples from the recorded data:
Cn1cc2c(c1C(=O)Nc1ccc(F)c(Cl)c1)CCC2NC(=O)OCc1nnnn1C (single isomer, unassigned) = low interval
Cn1cc2c(c1C(=O)Nc1ccc(F)c(Cl)c1)CCC2N (stereo not drawn) = low interval
Cn1cc2c(c1C(=O)Nc1ccc(F)c(Cl)c1)CCCCC2=O = high interval

Task: # bin lookup: classify Cn1cnc(COC(=O)NC2CCCc3c2cn(C)c3C(=O)Nc2ccc(F)c(Cl)c2)n1 (single isomer, unassigned) by its pEC50
Result: high interval

Task: # bin lookup: classify Cn1cc2c(c1C(=O)Nc1ccc(F)c(Cl)c1)CCCC2NC(=O)OCc1nc[nH]n1 (single isomer, unassigned) by its pEC50
Result: middle interval

---

# Test system: HBV rcDNA
# Measurement description: HepDE19 assay with bDNA quantitation of HBV rcDNA
# Format: cell-based, hepatitis B virus
# Applied conditions: Hepatitis B virus, HepDE19, 168 h, HepDE19 cells, Tet-free medium, 7 day-incubation, rcDNA measured by Quantigene 2.0 bDNA assay, top concentration 25 μM; read-out: DE-19 bDNA EC50
Assignment: determine reported pEC50 for the given compounds.
Answers are plain numbers, as −log10 of the molar value.

Cn1cc2c(c1C(=O)Nc1ccc(F)c(Cl)c1)CCCC2NC(=O)C1CC1 (single isomer, unassigned) [Compound 76] = 6.00
Cn1cnc(COC(=O)NC2CCc3c2cn(C)c3C(=O)Nc2ccc(F)cc2)n1 (single isomer, unassigned) [Compound 65] = 6.09
Cn1cc2c(c1C(=O)Nc1ccc(F)c(Cl)c1)CCC2NC(=O)OCc1ccn(C2CCCCO2)n1 (stereo not shown) [Compound 63] = 6.85
COC(=O)NC1CCc2c1c[nH]c2C(=O)Nc1ccc(F)c(Cl)c1 (stereo not shown) [Compound 9] = 5.52
Cn1cc2c(c1C(=O)Nc1ccc(F)c(Cl)c1)CCC2NC(=O)OCC1(C(=O)O)CC(F)(F)C1 (racemic) [Compound 53] = 5.57

Give measured pEC50 for every item shown.
1. Cn1cc2c(c1C(=O)Nc1ccc(F)c(Cl)c1)CCCC2=O [Compound 45]
2. Cn1cnc(COC(=O)NC2CCc3c2cn(C)c3C(=O)Nc2ccnc(C(F)(F)F)c2)n1 (single isomer, unassigned) [Compound 73]
3. CC(C)OC(=O)C1(COC(=O)NC2CCc3c2cn(C)c3C(=O)Nc2ccc(F)c(Cl)c2)CC(F)(F)C1 (racemic) [Compound 46]
4. Cn1cc2c(c1C(=O)Nc1ccc(F)c(Cl)c1)CCC2NC(=O)OCc1nc[nH]n1 (racemic) [Compound 54]
5. Cn1cc2c(c1C(=O)Nc1ccc(F)c(Cl)c1)CCC2=O [Compound 44]
6. Cc1c2c(c(C(=O)Nc3ccc(F)c(Cl)c3)n1C)CCCC2NC(=O)OCc1ncn(C)n1 (single isomer, unassigned) [Compound 92]

Result:
[7.15, 6.27, 5.64, 7.22, 4.72, 6.28]

Give measured pEC50 for every item shown.
1. CNC(=O)NC1CCc2c1c[nH]c2C(=O)Nc1ccc(F)c(Cl)c1 (racemic) [Compound 8]
2. Cn1cnc(COC(=O)NC2CCCc3c2c(Cl)n(C)c3C(=O)Nc2ccc(F)c(Cl)c2)n1 (single isomer, unassigned) [Compound 94]
3. Cn1cc2c(c1C(=O)Nc1ccc(F)c(Cl)c1)CCCC2N (single isomer, unassigned) [Compound 75]
4. Cn1cnc(COC(=O)NC2CCc3c2cn(C)c3C(=O)Nc2ccc(F)c(C#N)c2)n1 (single isomer, unassigned) [Compound 67]
5. CCn1cc2c(c1C(=O)Nc1ccc(F)c(Cl)c1)CCC2NS(=O)(=O)C1CC1 (stereo not shown) [Compound 12]

Result:
[4.74, 6.36, 5.68, 7.22, 6.59]
